Molecular target: Heat shock factor protein 1 (Mus musculus)
Sequence (P38532 whole entry): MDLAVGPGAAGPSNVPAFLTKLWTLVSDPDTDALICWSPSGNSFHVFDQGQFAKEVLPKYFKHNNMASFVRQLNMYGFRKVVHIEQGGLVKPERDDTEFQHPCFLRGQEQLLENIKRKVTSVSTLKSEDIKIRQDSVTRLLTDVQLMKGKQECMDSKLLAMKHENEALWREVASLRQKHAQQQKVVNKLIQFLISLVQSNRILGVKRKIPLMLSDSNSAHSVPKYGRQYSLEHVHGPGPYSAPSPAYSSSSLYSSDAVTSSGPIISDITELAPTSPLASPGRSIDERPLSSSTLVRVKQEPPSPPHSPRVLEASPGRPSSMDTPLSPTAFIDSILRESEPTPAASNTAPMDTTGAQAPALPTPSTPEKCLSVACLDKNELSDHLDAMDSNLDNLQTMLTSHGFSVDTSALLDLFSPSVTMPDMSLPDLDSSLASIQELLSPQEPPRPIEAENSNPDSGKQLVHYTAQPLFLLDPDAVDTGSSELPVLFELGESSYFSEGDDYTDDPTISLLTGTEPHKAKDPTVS
Experiment: enhancement of HSF1-driven luciferase signal – cell-based, NIH3T3, luminescence, dose retest, confirmation (AID 435004);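 note: stress induced by proteasome inhibitor MG132 added 30 min after compound; luciferase reporter driven by HSF1 response element in NIH3T3 cells; actives raise luminescence as potentiators of the MG132 stress response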
Format: functional
Active and inactive are the calls of the source.
API: response.call in active, inactive

Ask: Kindly provide the recorded test outcome for the following compound: Cc1ccc2nc(NCc3ccccc3)c(C=O)c(=O)n2c1
Result: inactive

Ask: Field entry: Cc1c(-c2nnc(S)n2-c2ccc(C(F)(F)F)cc2)nnn1-c1ccccc1
Result: inactive

Ask: Field entry: Cc1noc(C)c1COC(=O)c1ccccc1Oc1ccccc1
Result: inactive

Ask: Field entry: COc1ccc(N2C(=O)C(Cl)=C(Oc3cccc(OC)c3)C2=O)cc1
Result: active

* * *

Task for the reader: assign each of the following compounds its reported AC50.
System: Escherichia coli
Experiment: microbe, parasite or virus in culture
Active and inactive are the calls of the source.

Ask: Given the compound Cn1c(=O)[nH]c2ncn(C)c2c1=O , what is its reported AC50?
Result: 23.3 µM (active)

Ask: Field entry: O=C(Nc1cccc(-c2nc3cccnc3s2)c1)C1c2ccccc2Oc2ccccc21
Result: 50.5 µM (active)

Ask: Field entry: CCn1c2ccc(C)cc2c2nnc(SCCN3CCOCC3)nc21
Result: 89.7 µM (active)

Ask: Field entry: COc1ccccc1NS(=O)(=O)c1cc(NC(C)=O)ccc1N1CCCCC1
Result: 30.4 µM (active)

* * *

Target: Cytochrome P450 2C19 (Homo sapiens, UniProt P33261)
Sequence (P33261 whole entry): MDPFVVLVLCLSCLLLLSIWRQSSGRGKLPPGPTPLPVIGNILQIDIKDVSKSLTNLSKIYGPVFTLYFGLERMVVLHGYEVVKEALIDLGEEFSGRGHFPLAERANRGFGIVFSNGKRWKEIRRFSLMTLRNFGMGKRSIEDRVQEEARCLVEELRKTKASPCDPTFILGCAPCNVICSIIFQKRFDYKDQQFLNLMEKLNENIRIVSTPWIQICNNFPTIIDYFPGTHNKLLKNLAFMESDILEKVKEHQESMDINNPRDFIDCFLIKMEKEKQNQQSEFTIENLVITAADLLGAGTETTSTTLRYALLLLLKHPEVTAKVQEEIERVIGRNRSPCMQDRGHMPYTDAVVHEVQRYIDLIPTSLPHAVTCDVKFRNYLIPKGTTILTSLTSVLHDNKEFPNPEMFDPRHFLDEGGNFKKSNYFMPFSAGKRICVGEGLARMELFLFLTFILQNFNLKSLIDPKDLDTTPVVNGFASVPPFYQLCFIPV
Experiment: Cytochrome panel assay with activity outcomes. Panel member name: p450-cyp2c19 Compounds with AC50 equal or less than 10 uM are considered active
Format: functional
Conditions: read-out: AC50
Task for the reader: assign each of the following compounds its reported AC50.

Ask: Given the compound COCCNC(=O)c1cc(-c2cccc(OC)c2)on1 , what is its reported AC50?
Result: 28.2 µM (inconclusive)

Ask: Field entry: Sc1nnc(-c2ccncc2)n1CC1CCCO1 (stereo not given)
Result: 31.6 µM (inconclusive)

Ask: Field entry: CCn1c(S)nnc1-c1ccoc1C
Result: 28.2 µM (inconclusive)

Ask: Field entry: CC(/C=C/c1ccco1)=N/NC(=O)c1ccccc1Cl
Result: 39.8 µM (inconclusive)

Ask: Field entry: CCCCn1c(SCC(=O)Nc2nccs2)nc2ccccc2c1=O
Result: 0.0708 µM (inconclusive)

* * *

Molecular target: Cytochrome P450 2D6 (Homo sapiens, UniProt P10635);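 note: CYP2D6 member of a cytochrome P450 panel assay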
Sequence (P10635 whole entry): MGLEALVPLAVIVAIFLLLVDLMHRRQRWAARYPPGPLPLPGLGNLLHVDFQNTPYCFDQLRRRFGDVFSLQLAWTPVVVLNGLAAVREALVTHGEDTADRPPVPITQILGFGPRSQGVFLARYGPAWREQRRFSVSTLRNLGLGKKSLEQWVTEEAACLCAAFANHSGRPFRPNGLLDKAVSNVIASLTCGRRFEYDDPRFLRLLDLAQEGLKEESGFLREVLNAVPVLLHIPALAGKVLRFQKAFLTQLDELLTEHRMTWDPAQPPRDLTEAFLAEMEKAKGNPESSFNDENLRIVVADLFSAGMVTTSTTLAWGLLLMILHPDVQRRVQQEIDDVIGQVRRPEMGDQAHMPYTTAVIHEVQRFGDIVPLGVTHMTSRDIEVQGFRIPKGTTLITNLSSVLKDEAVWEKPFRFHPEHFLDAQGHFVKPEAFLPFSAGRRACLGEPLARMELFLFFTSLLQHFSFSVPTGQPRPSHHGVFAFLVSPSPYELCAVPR
REPORTED METRIC: AC50

Ask: Record lookup: for Cytochrome P450 2D6 (Homo sapiens, UniProt P10635), what AC50 belongs to COc1cccc(-c2cc(NCc3cccnc3)ncn2)c1 ?
Result: 25.1 µM (inconclusive)

Ask: Field entry: CN(C)C(=O)c1ccc(-c2ccc3ncnc(NCc4ccccc4)c3c2)cc1
Result: 31.6 µM (inconclusive)

Ask: Field entry: CO[C@H]1COC(=O)[C@H]2CCCN2C(=O)C/C=C\[C@@H](C)[C@H](OC)COC(=O)[C@@H](OCc2ccccc2)/C=C\[C@@H]1C
Result: 3.16 µM (inconclusive)

Ask: Field entry: COCC(=O)N1CCC2(CCN(Cc3ccccc3)CC2)CC1
Result: 25.1 µM (inconclusive)

Ask: Field entry: C[C@@H](COc1ccc(/C=C\c2ccccc2)cc1)[N+](C)(C)C
Result: 3.16 µM (inconclusive)

Ask: Field entry: CN(C)c1ncc2nc(CCc3ccccc3)c(=O)n(Cc3cccs3)c2n1
Result: 25.1 µM (inconclusive)

Ask: Field entry: O=[N+]([O-])c1ccc(Nc2nc3ccccc3s2)cc1
Result: 3.16 µM (inconclusive)

Ask: Field entry: CC(C)(C)NC(=O)CN(Cc1cccs1)C(=O)CCC(=O)Nc1nccs1
Result: 28.2 µM (inconclusive)

Ask: Field entry: COCCn1c(=O)c(-c2cccc(C#N)c2)nc2cnc(Nc3ccccc3)nc21
Result: 2.51 µM (inconclusive)

Ask: Field entry: COc1ccc2nc(C)cc(SCC(=O)NNC(=O)COc3ccc(C)cc3)c2c1
Result: 2 µM (inconclusive)

* * *

Molecular target: Endoribonuclease toxin MazF (Escherichia coli K-12)
Sequence (P0AE70 whole entry): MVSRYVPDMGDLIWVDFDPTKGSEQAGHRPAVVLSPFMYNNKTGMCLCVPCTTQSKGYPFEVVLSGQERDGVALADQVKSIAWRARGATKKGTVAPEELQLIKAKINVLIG
Assay: activation of MazEF endoribonuclease cleavage – biochemical, fluorescence, single-stranded RNA substrate, uHTS hits, dose response (AID 588481)
Type: functional
Active and inactive are the calls of the source.
API: response.call in TRUE = active, FALSE = inactive

Ask: Kindly provide the recorded test outcome for the following compound: COc1ccc(CNC(=O)C(C#N)c2nc3ccccc3nc2N2CCCC2)cc1 (stereo unspecified)
Result: TRUE

Ask: Field entry: CSc1ccc(C2C(C(=O)c3ccco3)=C(O)C(=O)N2c2nnc(SC)s2)cc1 (stereo unspecified)
Result: FALSE

Ask: Field entry: Cc1cccc2cc3c(N)c(C(=O)N4CCc5ccccc54)sc3nc12
Result: FALSE

Ask: Field entry: Cc1cc(/C=C2\C(=O)NC(=O)N(Cc3ccccc3)C2=O)c(C)n1C1CC1
Result: FALSE

Ask: Field entry: Cc1[nH]c2ccccc2c1/C=C/c1nc2ccccc2c(=O)n1-c1ccc([N+](=O)[O-])cc1
Result: FALSE

Ask: Field entry: CN(C)c1ccc(C=C2C=Cc3ccccc32)cc1
Result: FALSE

* * *

Molecular target: Cytochrome P450 2C19 (Homo sapiens)
Assay: Cytochrome panel assay with activity outcomes. Panel member name: p450-cyp2c19 Compounds with AC50 equal or less than 10 uM are considered active
Type: functional
Conditions: read-out: AC50
REPORTED METRIC: AC50

Ask: Record lookup: for Cytochrome P450 2C19 (Homo sapiens), what AC50 belongs to O=c1nc(-c2ccccc2)n(-c2ccccc2)c2ncccc12 ?
Result: 22.4 µM (inconclusive)

Ask: Field entry: COc1nc(C(=N)NO)nc(N2CCCCC2)n1
Result: 39.8 µM (inconclusive)

Ask: Field entry: Cc1cc(C)nc(Nc2n[nH]c(-c3cccc4ccccc34)n2)n1
Result: 17.8 µM (inconclusive)

Ask: Field entry: Cc1ccc2c(c1)[C@@H]1CN(C)CC[C@@H]1N2S(=O)(=O)c1ccc(F)cc1
Result: 28.2 µM (inconclusive)

Ask: Field entry: Cc1ccc(C2C(/C=N/c3c(C)n(C)n(-c4ccccc4)c3=O)=C(c3ccccc3)Oc3ccccc32)cc1 (stereo not given)
Result: 3.16 µM (inconclusive)

Ask: Field entry: COc1cc2cc(CN(CCCO)S(=O)(=O)c3ccccc3Cl)c(O)nc2cc1OC
Result: 39.8 µM (inconclusive)

Ask: Field entry: N=C1O[C@@H](c2c[nH]c3ccc(OCc4ccccc4)cc23)C(O)=C1O
Result: 6.31 µM (inconclusive)

Ask: Field entry: CCOC(=O)C1CCCN(C(=O)C2CCN(S(=O)(=O)N3CCC4(CC3)OCCO4)CC2)C1 (stereo not given)
Result: 35.5 µM (inconclusive)

Ask: Field entry: CCOC(=O)c1cn(-c2nc(-c3ccc(Cl)cc3)cs2)c2c(F)c(N3CC(C)OC(C)C3)c(F)cc2c1=O (stereo not given)
Result: 17.8 µM (inconclusive)

Ask: Field entry: O=C(c1ccc(Cl)cc1)N1CCN(c2cc(O)nnc2-c2ccccc2)CC1
Result: 1.41 µM (inconclusive)

* * *

Task for the reader: assign each of the following molecules its reported AC50.
Assay: blockers of HIV-1 envelope-mediated cell-cell fusion – cherry-pick, dose response (AID 652057)
Type: functional, cell-based
Calls of active or inactive are those of the source.

Ask: Given the molecule Cc1noc(C)c1S(=O)(=O)N(C)C[C@@H]1Oc2ccc(NC(=O)Nc3ccccc3)cc2CC(=O)N([C@@H](C)CO)C[C@@H]1C , what is its reported AC50?
Result: 19.7 µM (active)

Ask: Field entry: COc1cc(/C=N/NS(=O)(=O)c2ccc(C)cc2)ccc1OCc1ccc(C(=O)O)cc1
Result: 2.5 µM (active)

Ask: Field entry: CC(C)(C)c1ccc(OCCC(=O)Nc2cccc(S(=O)(=O)N3CCOCC3)c2)cc1
Result: 22.2 µM (active)

Ask: Field entry: Cc1ccc(C)c(CS(=O)(=O)c2cn(CC(=O)N3CCC(C)CC3)c3ccccc23)c1
Result: 2.82 µM (active)

* * *

Task for the reader: assign each of the following compounds its reported AC50.
Target: Replicative DNA helicase DnaB (Mycobacterium tuberculosis, UniProt P9WMR3)
Test: DnaB intein splicing inhibitors, dose response, biochemical, cell-free fluorescence (AID 449749)
Format: functional
Calls of active or inactive are those of the source.

Ask: Given the compound CC1=C(C)/C(=N\OS(=O)(=O)c2ccccc2)C=CC1=O , what is its reported AC50?
Result: 87.4 µM (active)

Ask: Field entry: COc1ccc(C(CC(=O)c2ccc(C)cc2)C(C#N)C#N)cc1OC (stereo not given)
Result: 11.4 µM (active)

Ask: Field entry: CCc1nnc(NC(=O)c2nc(S(=O)(=O)Cc3cccc(C)c3)ncc2Cl)s1
Result: 5.05 µM (active)

Ask: Field entry: C#CCOc1ccc(OC)cc1C(c1c(C)n[nH]c1O)c1c(C)n[nH]c1O
Result: 0.405 µM (active)

Ask: Field entry: COc1ccc(-c2[nH]nc3c2C(c2ccncc2)C(C#N)=C(N)O3)cc1 (stereo not given)
Result: 8.02 µM (active)
